- tested system: gEgI mutant (P317R): HSV2 gEgI mutant heterodimer comprising gE and gI ectodomains with mutation P317R in gE (HSV2, UniProt P89475 21-416; P06764 21-256)
- experimental details: ELISA, supernatant
property label: binding result

Fill in: binding result of mAb clone 48 (antibody, V domains shown) VH: QVTLKESGPGILQPSQTLSLTCSFSGFSLSTSGMGVSWIRQPSGKGLEWLAHIYWDDDKRYNPSLKSRLTISKDTSSNQVFLKITSVDTADTATYYCARRGFYYRYDGGRRYYYAMDYWGQGTSVTVSS VL: DILLTQSPAILSVSPGERVSFSCRASQSIGTSIHWYQQGTNGSPRLLIKFASESISGIPSRFSGSGSGTDFTLSINSVESEDIADYYCQQSNSWPLTFGAGTKLELK is ___
binds
